Target: T1, simian antithrombin (simian)
T1 construct: Native protein in plasma diluted 1/4; also called simian AT; antithrombin in simian plasma
Assay: ELISA, sdAb coated, plasma 1/4, bound antithrombin probed with polyclonal anti-antithrombin; grade by OD
metric name: OD

binder="KB-AT-002 (VHH, Monovalent anti-antithrombin single-domain antibody; also called sdAb KB-AT-002) VHH: QVQLVQSGGGLVQAGGSLRLSCAASGRTFNNNGMGWFRQAPGKEREFVAAISWSGGSTYYADSVKGRYIMSRDNAKNTVYLQMNSLKPEDTAVYYCAARTRYNSGLFSRNYDYWGQGTQVTVSS" observed_value="≥ 0.5 od"
binder="KB-AT-003 (VHH, Monovalent anti-antithrombin single-domain antibody; also called sdAb KB-AT-003) VHH: QVQLVQSGGGLVQPGGSLRLSCAASALTFSSRAWAWYRQAPGKQRELVASITGGGTTNYADSVKGRFTISRDNAKNTVYLQMNSLKPEDTAVHYCNGYRYTYAWGQGTQVTVSS" observed_value="≥ 0.5 od"
binder="KB-AT-007 (VHH, Monovalent anti-antithrombin single-domain antibody; same CDRs as KB-AT-001; also called sdAb KB-AT-007) VHH: QVQLQQSGGGLVQAGGSLRLSCAASGRTFRNYVMGWFRQAPGKDPEFIAGINRSGAITYYGDSVKGRFTISRDNAKNTVSLQMNSLEPEDTAVYYCAAGETTWSIRRDDYDYWGQGTQVTVSS" observed_value="≥ 0.5 od"
binder="KB-AT-005 (VHH, Monovalent anti-antithrombin single-domain antibody; also called sdAb KB-AT-005) VHH: EVQLVESGGGLVQPGGSLRLSCEASGRDFNDAALGWSRQVPGKARETVAMITSGGVRNYAETVKDRFTISRDNAKNTVYLDMNNLQPDDTGVYYCKADSFKGDYDTSWYLYWGQGTQVTVSS" observed_value="0.1 to 0.5 od"
